# Tested on: peripheral blood lymphocytes collected from swine exposed to ASFV
# Type: cell-based
Quantity kind: Number of Spots
Field format: numeric only.

Study these solved cases before continuing.
> print(dat)
                           substance                                       tgt  readout.number
1     926 (KQKHVSLLY) [compound 926]  peripheral blood lymphocytes collected from swine exposed to ASFV              16
2   1129 (IMDDLVEEY) [compound 1129]  peripheral blood lymphocytes collected from swine exposed to ASFV              14
3  1501 (ALDLSLIGFY) [compound 1501]  peripheral blood lymphocytes collected from swine exposed to ASFV              14

Value of Number of Spots reported for the substance 1394 (SSFKCWTCHLY) [compound 1394] is 14

Looking up 2252 (AIQYFYQRYR) [compound 2252] , I found its Number of Spots recorded as 13

// Number of Spots value for 1141 (ILAEYVYSY) [compound 1141] : 18

Number of Spots reading for 1080 (FRDHFIAL) [compound 1080] : 16

// Number of Spots lookup, substance = 2140 (YFRFFKKLL) [compound 2140] , result: 16

The measured Number of Spots associated with 1127 (RALKMYEDYY) [compound 1127] reads 12

Consider 386 (RTENYNLVCEY) [compound 386] . Its measured Number of Spots is 110

Per the record, 328 (KNHLYWRV) [compound 328] has Number of Spots of 13

# Number of Spots (substance: 1091 (LFPQYISYY) [compound 1091] ) is 17

# Number of Spots (substance: 1413 (ISSMSVSTFW) [compound 1413] ) is 12

---

# System: peripheral blood lymphocytes collected from swine exposed to ASFV
# Assay type: cell-based
Reported Number of Spots values for a set of substances
Output: the number by itself.

Worked cases, answers included:
> print(dat)
                           substance  readout.number
1   534 (RYFTFKFAAHL) [compound 534]              12
2    744 (SKFCNHMFFR) [compound 744]              18
3        VLIEFLTGFF [SEQ ID NO. 554]              16
4  2183 (PHIFYRPLYR) [compound 2183]              15

The substance 865 (RRVHASYPGY) [compound 865] , when measured on peripheral blood lymphocytes collected from swine exposed to ASFV, yielded Number of Spots of 15

peripheral blood lymphocytes collected from swine exposed to ASFV Number of Spots of 2205 (SVEELLSAV) [compound 2205] is 13

Number of Spots for peripheral blood lymphocytes collected from swine exposed to ASFV with input 1400 (KESAETIYTF) [compound 1400] equals 14

---

# Tested on: peripheral blood lymphocytes collected from swine exposed to ASFV
# Assay type: cell-based
Quantity kind: Number of Spots
A bare number is all that is needed in reply.

> print(dat)
                           substance    quantity.kind  readout.number
1    857 (AVNSTGLIGY) [compound 857]  Number of Spots              17
2  1619 (IDFDPLVTFY) [compound 1619]  Number of Spots              16
3   1512 (QIYKTLLEY) [compound 1512]  Number of Spots              21

Field Number of Spots (entry 1020 (QTNCQLYFF) [compound 1020] ) reads 18
